target: Virion infectivity factor (Human immunodeficiency virus type 1 group M subtype B (isolate BH10)) + Virion infectivity factor (Human immunodeficiency virus type 1 group M subtype B (isolate BRU/LAI)) + Virion infectivity factor (Human immunodeficiency virus type 1 group M subtype B (isolate PCV12)) + Virion infectivity factor (Human immunodeficiency virus type 1 group M subtype B (isolate HXB2)) + DNA dC->dU-editing enzyme APOBEC-3G (Homo sapiens) (UniProt P69720+P69721+P69722+P69723+Q9HC16); assay: inhibitors of Vif binding to APOBEC3G peptide, primary screen, biochemical, TR-FRET, GST-Vif 1-94, biotin-A3G peptide, dose response retest (AID 1117319); settings: active compounds read high;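 note: Vif residues 1-94 fused to GST binding biotinylated APOBEC3G peptide 110-148; 0% = full assay without inhibitor and 100% = GST in place of GST-Vif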
Out of some 260,000 compounds screened, about 1,500 (0.58%) were called active. Not shown: some 5% with an inconclusive outcome. These entries were drawn from the full list. Results with a measured potency or affinity are listed apart.
Here, each record is paired with measured inhibition data.
Measured Quantity: inhibition (%)

[
  {
    "Compound": "C=CCN(CC=C)C(=S)NC(=O)c1ccc(OC)c(Br)c1",
    "Recorded Number": 3.9
  },
  {
    "Compound": "COc1cc(CNCCc2c[nH]c3ccccc23)ccc1OCc1ccc(F)cc1",
    "Recorded Number": 12.4
  },
  {
    "Compound": "COC(=O)c1ccc(C)c(NC(=O)c2nn(C)c(=O)c3ccccc23)c1",
    "Recorded Number": 0.46
  },
  {
    "Compound": "CC(=O)Nc1ccc2c3c(ccc([N+](=O)[O-])c13)CC2",
    "Recorded Number": 1.46
  },
  {
    "Compound": "O=C(c1cc(-c2ccccc2)nn1-c1ccccc1)N1CCN(S(=O)(=O)c2ccc(F)cc2)CC1",
    "Recorded Number": -4.9
  },
  {
    "Compound": "COc1ccc(C2C(C#N)=C(N)Oc3c2oc(CO)cc3=O)cc1 (stereo not drawn)",
    "Recorded Number": -2.28
  },
  {
    "Compound": "COc1cccc(CNCCc2c[nH]c3ccccc23)c1OCc1ccc(F)cc1",
    "Recorded Number": 1.44
  },
  {
    "Compound": "O=C(NNC(=O)c1cccc(-n2cccc2)c1)c1ccc(F)cc1",
    "Recorded Number": 16
  },
  {
    "Compound": "CN(CC(=O)Nc1cccc(F)c1)C(=O)c1ccc(C(=O)c2ccccc2)cc1",
    "Recorded Number": 0.25
  },
  {
    "Compound": "N#CC1=C(N)Oc2c(oc(CO)cc2=O)C1c1cccs1 (stereo not drawn)",
    "Recorded Number": 26.6
  },
  {
    "Compound": "COc1ccc2cc(C3CC(c4cccs4)=NN3S(C)(=O)=O)c(Cl)nc2c1 (stereo not drawn)",
    "Recorded Number": -0.38
  },
  {
    "Compound": "Cc1cc(C)cc(NC(=O)CSc2nnc(-c3ccccc3C)o2)c1",
    "Recorded Number": 27.4
  },
  {
    "Compound": "CC(=O)Nc1ccc(C(=O)COC(=O)CCc2ccccc2)c(F)c1",
    "Recorded Number": -7.82
  },
  {
    "Compound": "O/N=C1\\CC(O)Cc2nonc21 (stereo not drawn)",
    "Recorded Number": -4.67
  },
  {
    "Compound": "CC(=O)Nc1cccc(C(=O)OCC(=O)NNC(=O)c2cccs2)c1",
    "Recorded Number": -1.93
  },
  {
    "Compound": "CCC(C)N1CCN(S(=O)(=O)c2ccc(NC(C)=O)cc2)CC1 (stereo not drawn)",
    "Recorded Number": -5.24
  },
  {
    "Compound": "CCOC(=O)c1sc2nc(CC(=O)OC)nc(NCc3ccc(F)cc3)c2c1C",
    "Recorded Number": -3.02
  },
  {
    "Compound": "Cc1[nH]n(-c2ccccc2)c(=O)c1/C=C1\\C=NN=C1c1ccccc1",
    "Recorded Number": -6.22
  },
  {
    "Compound": "Cc1cc(NS(=O)(=O)c2ccc(NC(=O)CSc3nnc(-c4ccco4)n3C)cc2)nc(C)n1",
    "Recorded Number": 2.91
  },
  {
    "Compound": "CCCn1nc(C(=O)Nc2cccc(C(=O)OC)c2)c2ccccc2c1=O",
    "Recorded Number": 0.28
  },
  {
    "Compound": "CC1=C(C(=O)OC2CCCCC2)C(c2ccccc2Br)NC(=O)N1 (stereo not drawn)",
    "Recorded Number": -6.38
  },
  {
    "Compound": "COc1ccc(NC(=O)CN(C)C(=O)c2cccc(Oc3ccccc3)c2)cc1",
    "Recorded Number": -4.86
  },
  {
    "Compound": "COc1ccccc1OCCSc1nc(N)cc(N)n1",
    "Recorded Number": 4.3
  }
]

###

biological target: Virion infectivity factor (Human immunodeficiency virus type 1 group M subtype B (isolate BH10)) + Virion infectivity factor (Human immunodeficiency virus type 1 group M subtype B (isolate BRU/LAI)) + Virion infectivity factor (Human immunodeficiency virus type 1 group M subtype B (isolate PCV12)) + Virion infectivity factor (Human immunodeficiency virus type 1 group M subtype B (isolate HXB2)) + DNA dC->dU-editing enzyme APOBEC-3G (Homo sapiens) (UniProt P69720+P69721+P69722+P69723+Q9HC16); assay: inhibitors of Vif binding to APOBEC3G peptide, primary screen, biochemical, TR-FRET, GST-Vif 1-94, biotin-A3G peptide, dose response retest (AID 1117319); conditions: active compounds read high;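 note: Vif residues 1-94 fused to GST binding biotinylated APOBEC3G peptide 110-148; 0% = full assay without inhibitor and 100% = GST in place of GST-Vif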
Screen size: about 260,000 compounds; about 1,500 (0.58%) were called active. Not shown: some 5% with an inconclusive outcome. The list is a sample of the results. Entries with a potency or affinity are not part of this list.
Recorded inhibition by entry

[
  {
    "Compound": "CC(=O)Nc1ccc2c(c1)OCCOCCOc1cc(NC(C)=O)ccc1OCCOCCOCCO2",
    "inhibition / %": 30.1
  },
  {
    "Compound": "CC(=O)Nc1ccc2c(c1)OCCO2",
    "inhibition / %": -3.04
  },
  {
    "Compound": "Cc1cccc(N2C(=O)/C(=C/c3cccnc3)SC2=S)c1",
    "inhibition / %": -1.54
  },
  {
    "Compound": "CCOc1ccc(NCc2nc3ccccc3n2CCOc2ccccc2)cc1",
    "inhibition / %": 11.4
  },
  {
    "Compound": "CCc1cccc(C)c1NC(=O)CO/N=C(\\N)CC(=O)NC1CCCCC1",
    "inhibition / %": -0.04
  },
  {
    "Compound": "CCCn1c(CNc2ccc(Br)cc2)nc2ccccc21",
    "inhibition / %": -3.54
  }
]

###

Here, each record is paired with measured inhibition data.
molecular target: Virion infectivity factor (Human immunodeficiency virus type 1 group M subtype B (isolate BH10)) + Virion infectivity factor (Human immunodeficiency virus type 1 group M subtype B (isolate BRU/LAI)) + Virion infectivity factor (Human immunodeficiency virus type 1 group M subtype B (isolate PCV12)) + Virion infectivity factor (Human immunodeficiency virus type 1 group M subtype B (isolate HXB2)) + DNA dC->dU-editing enzyme APOBEC-3G (Homo sapiens) (UniProt P69720+P69721+P69722+P69723+Q9HC16); assay: inhibitors of Vif binding to APOBEC3G peptide, primary screen, biochemical, TR-FRET, GST-Vif 1-94, biotin-A3G peptide, dose response retest (AID 1117319); details: active compounds read high;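 note: Vif residues 1-94 fused to GST binding biotinylated APOBEC3G peptide 110-148; 0% = full assay without inhibitor and 100% = GST in place of GST-Vif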
Among all 260,000 compounds or so, about 1,500 (0.58%) were called active. Roughly 5% stayed inconclusive and do not appear here. These entries were drawn from the full list. Potency and affinity values are given separately.
Measured Quantity: inhibition

[
  {
    "Compound": "CCCN1C(=O)/C(=c2\\sc3nc(=O)c(Cc4ccc(C)cc4)nn3c2=O)c2ccccc21",
    "Measured Quantity": "inhibition",
    "Result": "1.89% (inactive)"
  },
  {
    "Compound": "CC(=O)N1CCSc2ccc(S(=O)(=O)NCCc3ccc(C)cc3)cc21",
    "Measured Quantity": "inhibition",
    "Result": "2.49% (inactive)"
  },
  {
    "Compound": "Cc1ccc(Nc2nc(N)nc(CN3CCN(Cc4ccc5c(c4)OCO5)CC3)n2)cc1C",
    "Measured Quantity": "inhibition",
    "Result": "3.16% (inactive)"
  },
  {
    "Compound": "CC1(C)C2C(Cl)(Cl)C2(C)c2ccccc2N1C=O (centres undefined)",
    "Measured Quantity": "inhibition",
    "Result": "-2.3% (inactive)"
  }
]

###

target: Virion infectivity factor (Human immunodeficiency virus type 1 group M subtype B (isolate BH10)) + Virion infectivity factor (Human immunodeficiency virus type 1 group M subtype B (isolate BRU/LAI)) + Virion infectivity factor (Human immunodeficiency virus type 1 group M subtype B (isolate PCV12)) + Virion infectivity factor (Human immunodeficiency virus type 1 group M subtype B (isolate HXB2)) + DNA dC->dU-editing enzyme APOBEC-3G (Homo sapiens) (UniProt P69720+P69721+P69722+P69723+Q9HC16); assay: inhibitors of Vif binding to APOBEC3G peptide, primary screen, biochemical, TR-FRET, GST-Vif 1-94, biotin-A3G peptide, dose response retest (AID 1117319); conditions: active compounds read high;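 note: Vif residues 1-94 fused to GST binding biotinylated APOBEC3G peptide 110-148; 0% = full assay without inhibitor and 100% = GST in place of GST-Vif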
Out of some 260,000 compounds screened, about 1,500 (0.58%) were called active. Roughly 5% stayed inconclusive and do not appear here. Not all results are given here. Entries with a potency or affinity are not part of this list.
Consider the following molecules and their measured inhibition readings.
Measured Quantity: inhibition (%)

[
  {
    "Molecule": "O=C(COc1cc(F)ccc1[N+](=O)[O-])Nc1ccc2c(c1)OCO2",
    "Measured Quantity": "inhibition",
    "Unit Symbol": "%",
    "Recorded Number": -6.99
  },
  {
    "Molecule": "O=C(Cn1nnc(-c2ccccc2Cl)n1)Nc1cccc(S(=O)(=O)N2CCCC2)c1",
    "Measured Quantity": "inhibition",
    "Unit Symbol": "%",
    "Recorded Number": -4.6
  },
  {
    "Molecule": "Cc1ccc(CNC(=O)C2CC2c2ccccc2)cc1 (stereo not drawn)",
    "Measured Quantity": "inhibition",
    "Unit Symbol": "%",
    "Recorded Number": -6.49
  },
  {
    "Molecule": "Cc1noc(C)c1COc1cccc(C(=O)N(C)Cc2cccs2)c1",
    "Measured Quantity": "inhibition",
    "Unit Symbol": "%",
    "Recorded Number": -1.46
  },
  {
    "Molecule": "CC1=CC(=Nc2c(C)n(C)n(-c3ccccc3)c2=O)C=C(C)C1=O",
    "Measured Quantity": "inhibition",
    "Unit Symbol": "%",
    "Recorded Number": 16.9
  },
  {
    "Molecule": "COc1cccc(/C=C2\\SC(=S)N(CC(=O)N(C)C3CCS(=O)(=O)C3)C2=O)c1 (stereo not drawn)",
    "Measured Quantity": "inhibition",
    "Unit Symbol": "%",
    "Recorded Number": 3.59
  },
  {
    "Molecule": "CC(C)(C)c1cc(C(=O)Nc2ccccc2)ccn1",
    "Measured Quantity": "inhibition",
    "Unit Symbol": "%",
    "Recorded Number": 11.4
  },
  {
    "Molecule": "Cc1nc2oc3ccccc3c(=O)c2cc1C(=O)O",
    "Measured Quantity": "inhibition",
    "Unit Symbol": "%",
    "Recorded Number": -10.2
  },
  {
    "Molecule": "O=C1C=C(Nc2ccccc2O)c2ccccc2C1=O",
    "Measured Quantity": "inhibition",
    "Unit Symbol": "%",
    "Recorded Number": 29.9
  },
  {
    "Molecule": "O=C(O)c1cc(OCc2ccccc2)cc(OCc2ccccc2)c1",
    "Measured Quantity": "inhibition",
    "Unit Symbol": "%",
    "Recorded Number": 1.18
  },
  {
    "Molecule": "COc1ccccc1NC(=O)Cn1cnc2sc(C(=O)Nc3ccc(OC)c(OC)c3)c(C)c2c1=O",
    "Measured Quantity": "inhibition",
    "Unit Symbol": "%",
    "Recorded Number": 0.19
  },
  {
    "Molecule": "Cc1ccc(CN2CCSc3ccc(C(=O)NCc4ccco4)cc32)cc1",
    "Measured Quantity": "inhibition",
    "Unit Symbol": "%",
    "Recorded Number": -7.52
  },
  {
    "Molecule": "COc1cc2c(cc1OC)CN(Cc1nc3ccsc3c(=O)[nH]1)CC2",
    "Measured Quantity": "inhibition",
    "Unit Symbol": "%",
    "Recorded Number": 7.56
  },
  {
    "Molecule": "CC1(OC(=O)C2CCCC2)C(=O)C=C2C=C(c3ccsc3)N(CCCCO)C=C2C1=O (stereo not drawn)",
    "Measured Quantity": "inhibition",
    "Unit Symbol": "%",
    "Recorded Number": 21.2
  },
  {
    "Molecule": "COc1ccc(CCNCc2ccc(OCc3ccc(Cl)nc3)c(OC)c2)cc1OC",
    "Measured Quantity": "inhibition",
    "Unit Symbol": "%",
    "Recorded Number": 5.39
  },
  {
    "Molecule": "COc1cc(CNCCc2ccccc2)ccc1OCc1ccc(Cl)nc1",
    "Measured Quantity": "inhibition",
    "Unit Symbol": "%",
    "Recorded Number": 2.97
  },
  {
    "Molecule": "CCN(C(=O)COC(=O)/C=C/c1cnc2ccccc2n1)c1ccccc1",
    "Measured Quantity": "inhibition",
    "Unit Symbol": "%",
    "Recorded Number": -2.53
  },
  {
    "Molecule": "COc1cc(C(=O)NNC(=S)NC(=O)c2ccc(F)cc2)cc(OC)c1OC",
    "Measured Quantity": "inhibition",
    "Unit Symbol": "%",
    "Recorded Number": 13.5
  }
]
